target: farnesyltransferase (Rattus norvegicus, UniProt Q02293+Q04631); construct: The enzyme can be purified according to Cell, 62: 81-88 (1990), utilizing steps one, two, and three; from tissue; host or cells: rat brain; test: Inhibition of farnesyltransferase (3H-farnesyldiphosphate / H-Ras filter assay); format: biochemical; conditions: test compound at 10^−7 M; 3H-farnesyldiphosphate 0.6 μM, H-Ras 5.0 μM, 37° C., 30 minutes
assay.endpoint: inhibition at 0.1 µM (%)

// worked examples, inhibition at 0.1 µM included
>  <compound>
COc1cc(-c2cccc(Cl)c2)c(COC(c2ccc(C#N)cc2)c2cncn2C)cn1 (centres unmarked) [Example 39]

>  <assayed.system>
farnesyltransferase (Rattus norvegicus, UniProt Q02293+Q04631)

>  <value.measured>
74

$$$$
>  <compound>
Cn1cncc1C(OCc1ccc(Cl)cc1-c1ccccc1Cl)c1ccc(C#N)cc1 (centres unmarked) [Example 3]

>  <assayed.system>
farnesyltransferase (Rattus norvegicus, UniProt Q02293+Q04631)

>  <value.measured>
90

$$$$
>  <compound>
COc1cc(-c2cc(Cl)ccc2COC(c2ccc(C#N)cc2)c2cncn2C)cc(OC)c1OC (centres unmarked) [Example 24]

>  <assayed.system>
farnesyltransferase (Rattus norvegicus, UniProt Q02293+Q04631)

>  <value.measured>
94

$$$$
>  <compound>
Cn1cncc1C(OCc1cnc(F)cc1-c1cccc(Cl)c1)c1ccc(C#N)cc1 (centres unmarked) [Example 38]

>  <assayed.system>
farnesyltransferase (Rattus norvegicus, UniProt Q02293+Q04631)

>  <value.measured>
80

$$$$
>  <compound>
COc1ccc(OC)c(-c2cc(Cl)ccc2COC(c2ccc(C#N)cc2)c2cncn2C)c1 (centres unmarked) [Example 20]

>  <assayed.system>
farnesyltransferase (Rattus norvegicus, UniProt Q02293+Q04631)

>  <value.measured>
94

$$$$

a = Cn1cncc1C(OCc1cc(=O)c(C#N)cn1-c1cccc(Cl)c1)c1ccc(C#N)cc1 (centres unmarked) [Example 42]
b = Cn1cncc1C(NC(=O)c1cn(C)c(=O)cc1-c1cccc(Cl)c1)c1ccc(C#N)cc1 (centres unmarked) [Example 41]
q: Of the pair a and b , name the member with the lesser recorded inhibition at 0.1 µM. Reply briefly: the label of your chosen item.
a: b
(b: 10%, a: 87%)

---

biological target: farnesyltransferase (Rattus norvegicus, UniProt Q02293+Q04631); construct: The enzyme can be purified according to Cell, 62: 81-88 (1990), utilizing steps one, two, and three; from tissue; host or cells: rat brain; experiment: Inhibition of farnesyltransferase (3H-farnesyldiphosphate / H-Ras filter assay); type: biochemical; conditions: test compound at 10^−8 M; 3H-farnesyldiphosphate 0.6 μM, H-Ras 5.0 μM, 37° C., 30 minutes
assay.endpoint: inhibition at 0.01 µM (%)

>  <molecule>
Cn1cncc1C(F)(COc1ccc(C#N)cc1-c1cc(Cl)cc(Cl)c1)c1ccc(C#N)cc1 (centres unmarked)

>  <assayed.system>
farnesyltransferase (Rattus norvegicus, UniProt Q02293+Q04631)

>  <value.units>
%

>  <inhibition at 0.01 µM>
95

$$$$
>  <molecule>
Cn1cncc1C(N)(COc1ccc(C#N)cc1-c1ccc(OC(F)(F)F)cc1)c1ccc(C#N)cc1 (centres unmarked)

>  <assayed.system>
farnesyltransferase (Rattus norvegicus, UniProt Q02293+Q04631)

>  <value.units>
%

>  <inhibition at 0.01 µM>
96

$$$$
>  <molecule>
Cc1ccnc(NC(=O)c2cc(C#N)ccc2COC(c2ccc(C#N)cc2)c2cncn2C)c1 (centres unmarked)

>  <assayed.system>
farnesyltransferase (Rattus norvegicus, UniProt Q02293+Q04631)

>  <value.units>
%

>  <inhibition at 0.01 µM>
91

$$$$
>  <molecule>
CN(CC(O)(c1ccc(C#N)cc1)c1cncn1C)c1ccc(C#N)cc1-c1ccc(OC(F)(F)F)cc1 (centres unmarked)

>  <assayed.system>
farnesyltransferase (Rattus norvegicus, UniProt Q02293+Q04631)

>  <value.units>
%

>  <inhibition at 0.01 µM>
94

$$$$
>  <molecule>
CCCn1cc(-c2cc(C#N)ccc2COC(c2ccc(C#N)cc2)c2cncn2C)ccc1=O (centres unmarked)

>  <assayed.system>
farnesyltransferase (Rattus norvegicus, UniProt Q02293+Q04631)

>  <value.units>
%

>  <inhibition at 0.01 µM>
77

$$$$
